Experiment: Displacement of Thioflavin S from synthetic Tau 2N4R aggregate by fluorescence assay at 10 uM probe concentration
Active and inactive are the calls of the source. The calls are words filed in the database; no cut-off is given here.
Use one of these outcomes when replying: yes (1) for active, no (0) for inactive

Use the examples below as a reference point.
Nc1ccc2nc3ccc(N)cc3[s+]c2c1: no (0)
Cc1cc2nc3ccc(N(C)C)cc3[s+]c2cc1N: no (0)
CN(C)c1ccc2nc3ccc(=[N+](C)C)cc-3sc2c1: no (0)
C/N=c1\ccc2nc3ccc(N)cc3sc-2c1: no (0)
CN(C)c1ccc2nc3ccc(N)cc3[s+]c2c1: no (0)

Below: the item to evaluate.
Look up the recorded call for O=C1C=CC(=C(c2ccc(O)cc2)c2ccc(O)cc2)C=C1 in this test.
yes (1)
